Test system: Tribolium castaneum
assay_comment: Insecticidal activity against Tribolium castaneum (red flour beetle) assessed as mortality at 200 ug/ml
Format: functional
quantity: Activity (%)
Number only, in %; omit the unit.

INSERT INTO assay_data (given_smiles, value) VALUES
  ('Cc1ccc(C(=O)n2cc(C)n(-c3ccc(Br)cc3)c2=S)cc1', 20),
  ('Cc1ccc(C(=O)n2cc(C)n(-c3cccc(Cl)c3)c2=S)cc1', 20);

Then this molecule:
Give Activity (Tribolium castaneum) of the following molecule: `Cc1ccc(C(=O)n2cc(C)n(-c3ccccc3Cl)c2=S)cc1`
20

---

System: Fusarium solani
assay_comment: Antifungal activity against Fusarium solani assessed as fungus growth at 200 mg/ml by agar dilution method relative to control
Type: functional
quantity: Activity (%)
Number only, in %; omit the unit.

INSERT INTO results (given_smiles, value) VALUES
  ('Cc1ccc(C(=O)n2cc(C)n(-c3ccccc3Cl)c2=S)cc1', 100),
  ('Cc1cccc(C(=O)n2cc(C)n(-c3cccc(Cl)c3)c2=S)c1', 76);

Then this molecule:
Entry `COc1ccccc1-n1c(C)cn(C(=O)c2cccc(C)c2)c1=S` has what Activity?
100

---

Tested on: Pseudomonas aeruginosa
assay_comment: Antibacterial activity against Pseudomonas aeruginosa at 2 mg/ml by agar well diffusion method
Format: functional
particulars: read-out: DIZ
quantity: zone of inhibition at 2000 µg/mL (mm)
Number only, in mm; omit the unit.

// solved cases for zone of inhibition at 2000 µg/mL follow
INSERT INTO assay_data (compound, value) VALUES
  ('Cc1ccc(C(=O)n2cc(C)n(-c3ccccc3C)c2=S)cc1', 10),
  ('CC1(C)S[C@@H]2[C@H](NC(=O)[C@H](N)c3ccc(O)cc3)C(=O)N2[C@H]1C(=O)O [AMOXICILLIN]', 10),
  ('Cc1ccc(C(=O)n2cc(C)n(-c3cccc(C)c3)c2=S)cc1', 14);

Entry `Cc1ccc(C(=O)n2cc(C)n(-c3ccc(Cl)cc3)c2=S)cc1` has what zone of inhibition at 2000 µg/mL?
17

# repeat for `Cc1ccc(C(=O)n2cc(C)n(-c3ccccc3Cl)c2=S)cc1`
12

Provenance of the data: ChEMBL document CHEMBL3046622
